# TEST DETAILS: folding stability dG unfold from trypsin proteolysis; higher = more stable
Exercise: for every item that follows, state its recorded folding stability dG unfold.
Please give a number only; it is taken to be in kcal/mol.

Item: SAGGSAGGSAKEYIVRIKVRLKDGEEVEIEITVSEEELEELKKALESLPNIEEAEIEVFPLPSAGGSAGGSA [r18_157_TrROS_Hall] | folding stability dG unfold: 3.82

// sample SAGGSAGGMVERPITLRVRVKTPEEVKKLVEELLKPTDAKADVVEEELEDGTVLVTLTIYVPEESAGGSAGG [r6_719_TrMRF] , its folding stability dG unfold was 1.67

folding stability dG unfold reported for this sequence SAGGSAGGSAGMKIIVKSKEEAEKIAKEIAKKLGIEKKIKKIEIIVIPYKKTKDGKIEKISAGGSAGGSAGG [r17_237_TrROS_Hall] : 0.36

The sequence listed as SAGGLTVTLTDSSGNPVTVETELLPDNTLVLTITRTTPSGKTYTRTGIVSIDNTTINLVSFSEWTEDPSAGG [r13_451_JUSTAS] has a reported folding stability dG unfold of 2.79

According to the records, this sequence SAGGSADVKITEVHNPHRNPNGRPFFMVRIKWPDNGTHTIMMNPNDLDDLLAQLPPNWKIDEIHPISAGGSA [r15_339_TrROS] displays folding stability dG unfold of 1.39

Noted for SAGKKKIKIKLENGETKTLEIKPGETVEITFPNGLKATITKVKDGKIEIKVKEVYVKDKNGKWKKLKDLSAG [r5_417_TrROS_Hall] : its folding stability dG unfold reads 1.72

Notebook: SAGKPLPKLKTYEVDVPDNKKVKIEVYKLPDGTAIVKIKDDNGNESEIEIPLSLLENLSVEDLVKLAKSAGG [r19_47_TrMRF] , folding stability dG unfold read as 0.77

Data origin, for the record: the supplement of paper PMC12764529
